Task for the reader: assign each of the following compounds its reported MCF7 Viability Assay: % Viability relative to Fulvestrant.
# Tested on: MCF-7 cells
# measurement description: Breast cancer cell viability assay (MCF7, CellTiter-Glo)
# assay conditions: 5 days' compound exposure, […]
One number for each entry, in %.

Consider the following illustrative entries.
{"compound": "CC1=C(c2cccc(O)c2)C(c2ccc(OC[C@H](C)N3CC[C@@H](F)C3)cc2)Oc2ccc(O)cc21 (some centres unmarked)", "reported value": 16}
{"compound": "CC1=C(c2cccc(O)c2)C(c2ccc(OCCN3CC(C)C3)cc2)Oc2ccc(O)cc21 (racemic) [Example 4]", "reported value": 13}
{"compound": "CC1=C(c2cccc(O)c2)C(c2ccc(OCCN3CCC3)cc2)Oc2ccc(O)cc21 (centres unmarked)", "reported value": 25}
{"compound": "CC1=C(c2cccc(O)c2)C(c2ccc(OC[C@H](C)N3CCC3)cc2)Oc2ccc(O)cc21 (some centres unmarked)", "reported value": 30}

Query: For "CC1=C(c2cccc(O)c2)[C@H](c2ccc(OC[C@H](C)N3CC[C@@H](C)C3)cc2)Oc2ccc(O)cc21" , write its MCF7 Viability Assay: % Viability relative to Fulvestrant.
Result: 8

* * *

Task for the reader: assign each of the following compounds its reported ER-α In-Cell Western Assay (SP1): % ER-α remaining relative to Fulvestrant.
# target under test: UniProt:P03372
# Sequence (P03372 whole entry): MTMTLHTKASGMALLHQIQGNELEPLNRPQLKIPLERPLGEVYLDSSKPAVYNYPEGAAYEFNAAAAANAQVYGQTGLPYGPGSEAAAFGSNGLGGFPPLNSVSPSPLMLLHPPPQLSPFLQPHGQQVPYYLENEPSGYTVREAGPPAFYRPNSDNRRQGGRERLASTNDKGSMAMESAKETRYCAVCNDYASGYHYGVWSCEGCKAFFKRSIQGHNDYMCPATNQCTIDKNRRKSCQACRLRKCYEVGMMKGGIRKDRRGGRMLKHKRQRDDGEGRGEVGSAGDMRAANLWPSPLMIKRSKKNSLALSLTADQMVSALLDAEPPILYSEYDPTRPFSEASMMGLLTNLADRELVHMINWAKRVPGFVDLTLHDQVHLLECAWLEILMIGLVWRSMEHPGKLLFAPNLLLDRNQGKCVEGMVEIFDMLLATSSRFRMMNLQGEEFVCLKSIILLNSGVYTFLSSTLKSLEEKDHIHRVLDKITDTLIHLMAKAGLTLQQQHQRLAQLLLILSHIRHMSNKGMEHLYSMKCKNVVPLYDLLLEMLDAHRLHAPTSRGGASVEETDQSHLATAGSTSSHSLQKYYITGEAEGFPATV
# measurement description: Breast cancer cell ER-α In-Cell Western assay (SP1)
# Type: cell-based
# assay conditions: MCF7 cells, 4 hours post compound addition
Answers are plain numbers, in %.

Consider the following illustrative entries.
{"compound": "CC1=C(c2cccc(O)c2)C(c2ccc(OC[C@H](C)N3CC[C@@H](F)C3)cc2)Oc2ccc(O)cc21 (stereo partly shown)", "unit abbreviation": "%", "reported value": 8}
{"compound": "CC1=C(c2cccc(O)c2)C(c2ccc(OC[C@H](C)N3CCC3)cc2)Oc2ccc(O)cc21 (stereo partly shown)", "unit abbreviation": "%", "reported value": 33}
{"compound": "CC1=C(c2cccc(O)c2)C(c2ccc(OCCN3CCC3)cc2)Oc2ccc(O)cc21 (stereo not shown)", "unit abbreviation": "%", "reported value": 24}

Please examine the following record next.
Query: For CC1=C(c2cccc(O)c2)C(c2ccc(OCCN3CC(C)C3)cc2)Oc2ccc(O)cc21 (racemic) [Example 4] , write its ER-α In-Cell Western Assay (SP1): % ER-α remaining relative to Fulvestrant.
Result: 14
